Values from patent US20250114345A1

Target: p300 (Homo sapiens)
Construct: host or cells: A549 P300 HiBit cells
Experiment: P300 degradation, HiBit technology in A549 P300 HiBit cells (2 h)
Format: cell-based
Conditions: A549 P300 HiBit cells, 2 hrs post treatment
DC50 by entry:

Cn1cc(-c2ccc3c(c2)n(C)c(=O)n3C)c2cnc(-c3ccc(C(=O)NCC#Cc4cc5c(C6CCC(=O)NC6=O)nccc5o4)nc3)cc2c1=O (stereo not drawn): 1 to 9.9 nM
Cc1cc2c(N3CCCc4nc(-c5ccc(C(=O)NCC#Cc6ccc7occ(C8CCC(=O)NC8=O)c7c6)nc5)ncc43)cc(N3CCOCC3)nc2n(C)c1=O (stereo not drawn): 1 to 9.9 nM
CC(C)c1cc(-c2cccc3cc(-c4ccc(C(=O)NCC#Cc5cc6c(cn5)cnn6C5CCC(=O)NC5=O)nc4)ncc23)cc2c1n(C)c(=O)n2C (stereo not drawn): 1 to 9.9 nM
Cc1cc2c(N3CCOc4nc(-c5ccc(C(=O)NCC#Cc6cc7c(C8CCC(=O)NC8=O)cccc7o6)nc5)ncc43)cc(C3CCOCC3)nc2n(C)c1=O (stereo not drawn): 1 to 9.9 nM
Cc1cc2c(N3CCCc4cc(-c5ccc(C(=O)NCC#Cc6ccc7occ(C8CCC(=O)NC8=O)c7c6)nc5)c(C(F)F)cc43)cccc2n(C)c1=O (stereo not drawn): 1 to 9.9 nM

// map Cc1cc(-c2cnc(Nc3cc(C4CCOCC4)c4c(c3)n(C)c(=O)n4C)cn2)cnc1C(=O)NCC#Cc1cc2c(C3CCC(=O)NC3=O)cccc2o1 (stereo not drawn) to recorded DC50 (system: p300 (Homo sapiens)) > 1000 nM

---

Dmax by entry:
Target: p300 (Homo sapiens, UniProt Q09472)
Construct: host or cells: A549 P300 HiBit cells
Sequence (Q09472 whole entry): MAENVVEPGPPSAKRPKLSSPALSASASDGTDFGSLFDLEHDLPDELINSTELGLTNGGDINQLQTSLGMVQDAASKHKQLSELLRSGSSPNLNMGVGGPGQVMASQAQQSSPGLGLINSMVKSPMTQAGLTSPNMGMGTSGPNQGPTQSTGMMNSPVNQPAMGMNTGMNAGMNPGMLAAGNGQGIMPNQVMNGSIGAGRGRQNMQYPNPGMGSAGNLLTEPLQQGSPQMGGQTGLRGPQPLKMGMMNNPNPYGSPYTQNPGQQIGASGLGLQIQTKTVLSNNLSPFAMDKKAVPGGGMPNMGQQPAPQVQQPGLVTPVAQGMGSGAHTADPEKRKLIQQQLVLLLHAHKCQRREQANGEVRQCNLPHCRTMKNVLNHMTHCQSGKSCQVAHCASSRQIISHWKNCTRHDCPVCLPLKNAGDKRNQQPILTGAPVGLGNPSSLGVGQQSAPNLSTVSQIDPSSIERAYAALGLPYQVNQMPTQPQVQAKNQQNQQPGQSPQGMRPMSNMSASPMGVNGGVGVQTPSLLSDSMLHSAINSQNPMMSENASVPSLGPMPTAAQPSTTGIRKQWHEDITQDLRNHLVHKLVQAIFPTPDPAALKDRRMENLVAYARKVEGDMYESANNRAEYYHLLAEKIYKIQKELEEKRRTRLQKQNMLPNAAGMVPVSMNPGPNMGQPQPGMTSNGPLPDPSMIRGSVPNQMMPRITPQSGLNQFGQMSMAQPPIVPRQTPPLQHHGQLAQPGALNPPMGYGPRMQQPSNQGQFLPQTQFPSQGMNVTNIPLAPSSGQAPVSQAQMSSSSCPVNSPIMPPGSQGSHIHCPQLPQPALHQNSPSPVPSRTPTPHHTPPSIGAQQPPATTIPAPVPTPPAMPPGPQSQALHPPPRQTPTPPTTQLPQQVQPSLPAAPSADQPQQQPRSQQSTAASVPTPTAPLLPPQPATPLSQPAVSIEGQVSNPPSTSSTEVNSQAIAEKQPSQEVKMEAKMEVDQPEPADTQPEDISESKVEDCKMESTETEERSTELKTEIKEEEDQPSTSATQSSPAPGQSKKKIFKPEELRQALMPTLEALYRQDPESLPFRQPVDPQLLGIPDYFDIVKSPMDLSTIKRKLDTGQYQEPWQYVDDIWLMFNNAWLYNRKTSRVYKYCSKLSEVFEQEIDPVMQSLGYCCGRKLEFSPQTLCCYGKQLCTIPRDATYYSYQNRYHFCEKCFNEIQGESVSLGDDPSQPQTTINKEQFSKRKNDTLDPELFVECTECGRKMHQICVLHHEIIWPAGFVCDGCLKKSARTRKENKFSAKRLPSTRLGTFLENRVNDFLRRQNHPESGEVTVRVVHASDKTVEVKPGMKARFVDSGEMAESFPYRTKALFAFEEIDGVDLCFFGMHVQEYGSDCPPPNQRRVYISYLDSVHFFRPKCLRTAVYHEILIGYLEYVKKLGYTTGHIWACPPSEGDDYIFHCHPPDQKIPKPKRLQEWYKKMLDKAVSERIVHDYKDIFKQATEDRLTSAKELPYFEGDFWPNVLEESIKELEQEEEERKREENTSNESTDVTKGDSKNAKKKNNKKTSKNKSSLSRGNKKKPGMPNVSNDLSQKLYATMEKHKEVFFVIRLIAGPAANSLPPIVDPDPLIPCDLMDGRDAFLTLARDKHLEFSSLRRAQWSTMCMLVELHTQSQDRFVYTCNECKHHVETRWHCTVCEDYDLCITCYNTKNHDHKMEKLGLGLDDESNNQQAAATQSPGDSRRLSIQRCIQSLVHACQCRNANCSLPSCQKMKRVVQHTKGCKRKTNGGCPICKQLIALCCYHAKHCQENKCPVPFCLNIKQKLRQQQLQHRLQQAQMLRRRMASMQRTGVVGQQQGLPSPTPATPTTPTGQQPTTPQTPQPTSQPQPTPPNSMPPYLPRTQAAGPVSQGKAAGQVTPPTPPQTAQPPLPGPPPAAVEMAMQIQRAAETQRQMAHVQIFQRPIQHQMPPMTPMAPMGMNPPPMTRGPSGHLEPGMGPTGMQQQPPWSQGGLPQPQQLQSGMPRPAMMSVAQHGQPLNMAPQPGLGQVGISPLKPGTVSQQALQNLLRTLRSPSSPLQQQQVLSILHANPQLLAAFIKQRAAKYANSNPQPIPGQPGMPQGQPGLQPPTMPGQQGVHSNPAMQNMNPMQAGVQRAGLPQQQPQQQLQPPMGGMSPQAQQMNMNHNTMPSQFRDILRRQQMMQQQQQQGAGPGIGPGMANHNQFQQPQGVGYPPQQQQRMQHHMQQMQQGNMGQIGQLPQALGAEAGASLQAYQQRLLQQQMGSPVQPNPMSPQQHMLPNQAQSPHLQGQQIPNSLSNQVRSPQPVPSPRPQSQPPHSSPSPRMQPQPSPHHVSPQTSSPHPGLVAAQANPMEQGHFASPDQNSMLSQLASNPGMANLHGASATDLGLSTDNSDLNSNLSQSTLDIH
Assay: P300 degradation, HiBit technology in A549 P300 HiBit cells (2 h)
Format: cell-based
Details: A549, A549 P300 HiBit cells, 2 hrs post treatment

Below: 3 compounds and their reported Dmax.
Cc1cc2c(N3CCCc4nc(-c5ccc(C(=O)NCC#Cc6cc7c(C8CCC(=O)NC8=O)cccc7o6)nc5)ncc43)nc(N3CCOCC3)cc2n(C)c1=O (centres unmarked): > 80%
Cc1cc(-c2ncc3c(n2)CCCN3c2cc(C3CCOCC3)cc3c2cc(C)c(=O)n3C)cnc1C(=O)NCC#Cc1cc2c(C3CCC(=O)NC3=O)cccc2s1 (centres unmarked): > 80%
Cc1cc2c(N3CCN(C)c4nc(-c5ccc(C(=O)NCC#Cc6cc7c(C8CCC(=O)NC8=O)cccc7o6)nc5)ncc43)cccc2n(C)c1=O (centres unmarked): > 80%

// returns reported Dmax for input "Cc1cc2c(N3CCCc4nc(-c5ccc(C(=O)NCC#Cc6ccc7occ([C@H]8CCC(=O)NC8=O)c7c6)nc5)ncc43)nc(N3CCOCC3)cc2n(C)c1=O" 60 to 79%

// returns reported Dmax for input Cc1cc2cnn(C3CCC(=O)NC3=O)c2cc1C#CCNC(=O)c1ccc(-c2cc3cccc(-c4cc(C(C)C)c5c(c4)n(C)c(=O)n5C)c3cn2)cn1 (centres unmarked) 60 to 79%

// returns reported Dmax for input Cc1cc2c(-c3cccc4cc(-c5ccc(C(=O)NCC#Cc6cc7c(C8CCC(=O)NC8=O)cccc7o6)nc5)ncc34)nc(N3CCOCC3)cc2n(C)c1=O (centres unmarked) > 80%

// returns reported Dmax for input CC(C)c1cc(N2CCOc3cc(-c4ccc(C(=O)NCC#Cc5ccn6ncc(C7CCC(=O)NC7=O)c6c5)nc4)ncc32)cc2c1n(C)c(=O)n2C (centres unmarked) > 80%

// returns reported Dmax for input CC(C)c1cc(-c2cccc3cc(-c4ccc(C(=O)NCC#Cc5ccc6c(C#N)cn(C7CCC(=O)NC7=O)c6c5)nc4)ncc23)cc2c1n(C)c(=O)n2C (centres unmarked) 60 to 79%

// returns reported Dmax for input Cn1c(=O)n(C)c2c(N3CCOCC3)nc(-c3cccc4cc(-c5ccc(C(=O)NCC#Cc6ccc7occ(C8CCC(=O)NC8=O)c7c6)nc5)ncc34)cc21 (centres unmarked) > 80%

// returns reported Dmax for input Cc1cc(-c2ncc(N(C)c3cc(C(C)C)c4c(c3)n(C)c(=O)n4C)cn2)cnc1C(=O)NCC#Cc1cc2c(C3CCC(=O)NC3=O)coc2cc1F (centres unmarked) > 80%

// returns reported Dmax for input Cc1cc2c(N3CCOc4cc(-c5ccc(C(=O)NCC#Cc6ccc7occ(C8CCC(=O)NC8=O)c7c6)nc5)c(F)cc43)cc(F)cc2n(C)c1=O (centres unmarked) > 80%

---

Molecular target: p300 (Homo sapiens, UniProt Q09472)
Construct: host or cells: A549 P300 HiBit cells
Assay: P300 degradation, HiBit technology in A549 P300 HiBit cells (2 h)
Type: cell-based
Conditions: A549 P300 HiBit cells, 2 hrs post treatment
assay.endpoint: DC50

CCc1cc2c(N3CCCc4nc(-c5ccc(C(=O)NCC#Cc6ccc7occ(C8CCC(=O)NC8=O)c7c6)nc5)ncc43)cc(C3CCOCC3)cc2n(C)c1=O (stereo not shown): > 1000 nM
Cn1c(=O)n(C)c2c(N3CC4(COC4)C3)nc(-c3cccc4cc(-c5ccc(C(=O)NCC#Cc6ccc7occ(C8CCC(=O)NC8=O)c7c6)nc5)ncc34)cc21 (stereo not shown): 1 to 9.9 nM
COC1CN(c2cc(N3CCOc4cc(-c5ccc(C(=O)NCC#Cc6ccc7occ(C8CCC(=O)NC8=O)c7c6)nc5)c(F)cc43)c3cc(C)c(=O)n(C)c3c2)C1 (stereo not shown): 1 to 9.9 nM
Cc1cc(-c2cc3cccc(-c4ccc5c(c4)n(C)c(=O)n5C)c3cn2)cnc1C(=O)NCC#Cc1cc2c([C@@H]3CCC(=O)NC3=O)cccc2o1: 1 to 9.9 nM
CCn1c(=O)n(C)c2c(N3CCOCC3)nc(-c3cccc4cc(-c5ccc(C(=O)NCC#Cc6ccc7occ(C8CCC(=O)NC8=O)c7c6)nc5)ncc34)cc21 (stereo not shown): 1 to 9.9 nM
CCN(c1cnc(-c2cnc(C(=O)NCC#Cc3ccc4occ(C5CCC(=O)NC5=O)c4c3)c(C)c2)c(F)c1)c1cc(C(C)C)c2c(c1)n(C)c(=O)n2C (stereo not shown): 1 to 9.9 nM
Cc1cc2c(N3CCCc4nc(-c5ccc(C(=O)NCC#Cc6cc7c(C8CCC(=O)NC8=O)cccc7o6)nc5)ncc43)cc(Cl)cc2n(C)c1=O (stereo not shown): 1 to 9.9 nM
CCc1cc(N(C)c2ccc(-c3cnc(C(=O)NCC#Cc4cccc(NC5CCC(=O)NC5=O)c4)c(C)c3)nc2)c2cc(C)c(=O)n(C)c2c1 (stereo not shown): 1 to 9.9 nM
Cn1c(=O)n(C)c2cc(-c3cccc4cc(-c5ccc(C(=O)NCC#Cc6ccc7nnn(C8CCC(=O)NC8=O)c7c6)nc5)ncc34)ccc21 (stereo not shown): < 1 nM
CC(C)c1cc(-c2cccc3cc(-c4ccc(C(=O)NCC#Cc5cc6cccc(C7CCC(=O)NC7=O)c6o5)nc4)ncc23)cc2c1n(C)c(=O)n2C (stereo not shown): 1 to 9.9 nM

// returns reported DC50 for input Cn1c(=O)n(C)c2c(N3CC4CCC(C3)O4)nc(-c3cccc4cc(-c5ccc(C(=O)NCC#Cc6cc7c(C8CCC(=O)NC8=O)cccc7o6)nc5)ncc34)cc21 (stereo not shown) < 1 nM

// returns reported DC50 for input Cc1cc2cnn(C3CCC(=O)NC3=O)c2cc1C#CCNC(=O)c1ccc(-c2cc3cccc(-c4cc(C(C)C)c5c(c4)n(C)c(=O)n5C)c3cn2)cn1 (stereo not shown) 10 to 99 nM

// returns reported DC50 for input "Cn1c(=O)n(C)c2cc(-c3cccc4cc(-c5ccc(C(=O)NCC#Cc6cc7c([C@@H]8CCC(=O)NC8=O)cccc7o6)nc5)ncc34)ccc21" 1 to 9.9 nM

// returns reported DC50 for input CC(C)c1cc(N2CCOc3cc(-c4ccc(C(=O)NCC#Cc5ccc6occ(C7CCC(=O)NC7=O)c6c5)nc4)c(Cl)cc32)cc2c1n(C)c(=O)n2C (stereo not shown) 10 to 99 nM

// returns reported DC50 for input Cc1cc2c(N3CCCc4nc(-c5ccc(C(=O)NCC#Cc6cc7c(C8CCC(=O)NC8=O)cccc7o6)nc5)ncc43)nc(N3CC(C)(O)C3)cc2n(C)c1=O (stereo not shown) < 1 nM

---

Target: p300 (Homo sapiens, UniProt Q09472)
Construct: host or cells: A549 P300 HiBit cells
Assay: P300 degradation, HiBit technology in A549 P300 HiBit cells (2 h)
Assay type: cell-based
Conditions: A549 P300 HiBit cells, 2 hrs post treatment
DC50 by entry:

Below: 2 compounds and their reported DC50.
Cc1cc(-c2ncc(N(C)c3cc(N4CCOCC4)c4oc(=O)n(C)c4c3)cn2)cnc1C(=O)NCC#Cc1ccc2occ(C3CCC(=O)NC3=O)c2c1 (stereo not drawn): > 1000 nM
Cc1cc(-c2cc3cccc(-c4ccc5c(c4)n(C)c(=O)n5C)c3cn2)cnc1C(=O)NCC#Cc1ccc2occ(C3CCC(=O)NC3=O)c2c1 (stereo not drawn): 1 to 9.9 nM

We next turn to a different compound, shown below.
// returns reported DC50 for input Cc1cc2c(N3CCOc4cc(-c5ccc(C(=O)NCC#Cc6ccc7occ(C8CCC(=O)NC8=O)c7c6)nc5)ccc43)cc(C3CCOCC3)cc2n(C)c1=O (stereo not drawn) 1 to 9.9 nM
